# assaySetup: in ethanol, 308.2 K
observable: solubility (mole fraction)
Keep it simple and answer with nothing but the number.

The reported value for "O=c1cc(-c2ccc(O)cc2)oc2cc(O)cc(O)c12" in terms of solubility (mole fraction) is 0.000358

---

# assaySetup: in transcutol, 308.2 K
observable: solubility (mole fraction)

The reported value for "O=c1cc(-c2ccc(O)cc2)oc2cc(O)cc(O)c12" in terms of solubility (mole fraction) is 0.357

---

# assaySetup: in propylene glycol, 318.2 K
observable: solubility (mole fraction)
Keep it simple and answer with nothing but the number.

The reported value for "O=c1cc(-c2ccc(O)cc2)oc2cc(O)cc(O)c12" in terms of solubility (mole fraction) is 0.015

---

# assaySetup: in sec-butanol, 308.2 K
observable: solubility (mole fraction)
Keep it simple and answer with nothing but the number.

The reported value for "O=c1cc(-c2ccc(O)cc2)oc2cc(O)cc(O)c12" in terms of solubility (mole fraction) is 0.000685

---

# assaySetup: in ethyl acetate, 318.2 K
observable: solubility (mole fraction)
Keep it simple and answer with nothing but the number.

The reported value for "O=c1cc(-c2ccc(O)cc2)oc2cc(O)cc(O)c12" in terms of solubility (mole fraction) is 0.000446
